Hello, the source for this data is patent US10815221B2, in case you need it.

- method-notes: Solubility in SGF, FeSSIF and FaSSIF by HPLC
- Type: physicochemical
- conditions: fed state simulated intestinal fluid (FeSSIF), pH 5, fessif, thermodynamic from solid, FeSSIF pH=5.0, 4 hours
experimental-readout: solubility at 4 h (µg/mL)
Hi! Could you send only the number? It should be in µg/mL, unit omitted.

Notebook: CC(O)c1cc(C(=O)N[C@@H](C)Cn2ccc(-c3ccc(C#N)c(Cl)c3)n2)n[nH]1 (single isomer, unassigned) [Form B] , solubility at 4 h read as 288
